Each item that follows carries a reported Z repl 1.
# EXPERIMENTAL_TARGET: tau (Homo sapiens, UniProt P10636)
# Sequence (P10636 623-695 limits assumed): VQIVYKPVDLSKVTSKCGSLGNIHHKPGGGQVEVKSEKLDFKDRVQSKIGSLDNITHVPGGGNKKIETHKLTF
# EXPERIMENTAL_DETAILS: MCE Phenols Library screening, tau biosensor cell seeding assay (AvZ)
# Format: cell-based
# CONDITION_DETAILS: Z score, replicate 1
ASSAY_METRIC: Z repl 1

COc1ccc(CCC(=O)c2c(O)cc(O[C@@H]3O[C@H](CO)[C@@H](O)[C@H](O)[C@H]3O[C@@H]3O[C@@H](C)[C@H](O)[C@@H](O)[C@H]3O)cc2O)cc1O [Neohesperidin dihydrochalcone]; -0.172
NC(Cc1cccc(O)c1)C(=O)O (racemic) [DL-m-Tyrosine]; 1.84
O=c1c(-c2ccc(O)cc2)coc2cc(O)cc(O)c12 [Genistein]; 0.361
O=c1c(O[C@@H]2O[C@H](CO)[C@@H](O)[C@H](O)[C@H]2O)c(-c2ccc(O)c(O)c2)oc2cc(O)cc(O)c12 [Isoquercetin]; 0.174
O=c1c(O)c(-c2ccc(O)cc2O)oc2cc(O)cc(O)c12 [Morin]; -1.702
COc1ccc2cc3[n+](cc2c1OC)CCc1cc(O)c(O)cc1-3 [Demethyleneberberine]; -0.088
O=C1C[C@@H](c2cc(O)c(O)c(O[C@@H]3O[C@H](CO)[C@@H](O)[C@H](O)[C@H]3O)c2)Oc2cc(O)cc(O)c21 [Plantagoside]; 0.333
CC(C)=CCC/C(C)=C/Cc1cc(-c2coc3cc(O)ccc3c2=O)ccc1O [Corylifol A]; 0.054

* * *

# EXPERIMENTAL_TARGET: tau (Homo sapiens)
# EXPERIMENTAL_DETAILS: MCE Phenols Library screening, tau biosensor cell seeding assay (AvZ)
# Format: cell-based
# CONDITION_DETAILS: Z score, replicate 2
Let's look at some molecules and their measured Z Repl 2.
ASSAY_METRIC: Z Repl 2

O=c1oc2cc(O)ccc2c2cc(O)c(O)cc12 [Urolithin C]; -0.316
CC(C)=CC[C@@H](OC(=O)CC(C)(C)O)C1=CC(=O)c2c(O)ccc(O)c2C1=O [?-Hydroxyisovalerylshikonin]; -0.673
COc1cc2c(cc1O)-c1cc3ccc(OC)c(OC)c3c[n+]1CC2 [Columbamine]; 0.636
O=c1c(O)c(-c2ccc(O[C@@H]3O[C@H](CO)[C@@H](O)[C@H](O)[C@H]3O)c(O)c2)oc2cc(O)cc(O)c12 [Spiraeoside]; -0.12
COc1cc(-c2coc3cc(O[C@@H]4O[C@H](CO)[C@@H](O)[C@H](O)[C@H]4O)c(OC)c(O)c3c2=O)ccc1O [Iristectorin B]; -0.887
O=c1cc(-c2ccc(O)cc2)oc2c([C@@H]3O[C@H](CO)[C@@H](O[C@@H]4O[C@H](CO)[C@@H](O)[C@H](O)[C@H]4O)[C@H](O)[C@H]3O)c(O)cc(O)c12 [Vitexin-4''-O-glucoside]; -0.232
CC(=O)NCCc1c[nH]c2ccc(O)cc12 [N-Acetyl-5-hydroxytryptamine]; -0.756

* * *

# EXPERIMENTAL_TARGET: tau (Homo sapiens, UniProt P10636)
# EXPERIMENTAL_DETAILS: MCE Phenols Library screening, tau biosensor cell seeding assay (AvZ)
# Format: cell-based
# CONDITION_DETAILS: puncta, replicate 1
# raw data 1 per entry
ASSAY_METRIC: raw data 1

O=C(O)Cc1cccc(O)c1 [3-Hydroxyphenylacetic acid]; 28313.1
N[C@@H](Cc1c[nH]c2ccc(O)cc12)C(=O)O [L-5-Hydroxytryptophan]; 29696.2
COc1ccc2c(c1OC)O[C@H]1c3ccc(O)cc3OC[C@@H]21 [Methylnissolin]; 23269.5
O=C1C[C@@H](c2ccc(O)cc2)Oc2cc(O[C@@H]3O[C@H](CO)[C@@H](O)[C@H](O)[C@H]3O)cc(O)c21 [Prunin]; 24743.3
COc1c(O[C@@H]2O[C@H](CO)[C@@H](O)[C@H](O)[C@H]2O)cc2oc(-c3ccc(O)cc3)cc(=O)c2c1O [Homoplantaginin]; 25406.2
COc1cc(/C=C/c2ccc(O)cc2)cc(OC)c1 [Pterostilbene]; 14642.4
COc1cc(O)c2c(c1)O[C@H](c1ccc(O)cc1)CC2=O [Sakuranetin]; 26379.5
COc1ccc(/C=C/C(=O)C(C)(C)C(=O)/C=C/c2ccc(OC)c(OC)c2)cc1OC [Tetramethylcurcumin]; 13309.5
COc1cc2ccc(=O)oc2c(OC)c1O [Isofraxidin]; 28887.4
COc1ccccc1O [Guaiacol]; 17657.8
NCC(c1ccc(O)cc1)C1(O)CCCCC1 (stereo not shown) [N,N,O-Tridesmethylvenlafaxine]; 37867.4
Oc1cc(O)c2c(c1)O[C@@H](c1cc(O)c(O)c(O)c1)[C@H](O)C2 [(-)-Gallocatechin]; 10555.6
C[C@@H]1O[C@@H](OC[C@H]2O[C@@H](Oc3c(-c4ccc(O)cc4)oc4cc(O)cc(O)c4c3=O)[C@H](O[C@@H]3O[C@@H](C)[C@H](O)[C@@H](O)[C@H]3O)[C@@H](O)[C@@H]2O)[C@H](O)[C@H](O)[C@H]1O [Clitorin]; 25288.8
CC(C)=CCc1cc(C(=O)/C=C/c2ccc(O)cc2)c(O)cc1O [Bavachalcone]; 15835.9
C[C@@H]1O[C@@H](O[C@H]2[C@H](Oc3cc(O)c4c(=O)cc(-c5ccc(O)cc5)oc4c3)O[C@H](CO)[C@@H](O)[C@@H]2O)[C@H](O)[C@H](O)[C@H]1O [Rhoifolin]; 37158.3
Cl.Oc1ccc(CC2NCCc3cc(O)c(O)cc32)cc1 (stereo not shown) [Higenamine (hydrochloride)]; 23487.2

* * *

# Lookup of reported raw data 2 keyed by entry
# EXPERIMENTAL_TARGET: tau (Homo sapiens)
# EXPERIMENTAL_DETAILS: MCE Phenols Library screening, tau biosensor cell seeding assay (AvZ)
# Format: cell-based
# CONDITION_DETAILS: puncta, replicate 2
ASSAY_METRIC: raw data 2

COc1ccc(-c2oc3cc(O)cc(O)c3c(=O)c2O)cc1O [Tamarixetin]; 6006.83
O=c1c(O)c(-c2ccc(O)c(O)c2)oc2cc(O[C@@H]3O[C@H](CO)[C@@H](O)[C@H](O)[C@H]3O)c(O)c(O)c12 [Quercetagitrin]; 207.732
COC(=O)c1c(C)cc(OC(=O)c2c(C)cc(O)c(C=O)c2O)c(C)c1O [Atranorin]; 4207.53
COc1c(O)cc2oc(-c3ccc(O)c(O)c3)cc(=O)c2c1O [Nepetin]; 4146.93
COc1cc(O)c2c(c1)oc(=O)c1c3cc(O)c(O)cc3oc21 [Wedelolactone]; 631.756
COc1cc2ccc(=O)oc2c(OC)c1O [Isofraxidin]; 20692.2
COc1cc2c(CCNC(C)=O)c[nH]c2cc1O [6-Hydroxymelatonin]; 9022.73
C=CCc1ccc(O)c(OC)c1 [Eugenol]; 3574.2
CC(C(=O)c1ccc(O)cc1O)c1ccc(O)cc1 (stereo not drawn) [O-Desmethylangolensin]; 10409.2

* * *

# EXPERIMENTAL_TARGET: tau (Homo sapiens, UniProt P10636)
# EXPERIMENTAL_DETAILS: MCE Phenols Library screening, tau biosensor cell seeding assay (AvZ)
# Assay type: cell-based
# CONDITION_DETAILS: average of raw data 1 and 2
Kindly apply the following: t if av puncta is less than 20000, f in every other case.

Oc1cc(O)cc(/C=C/c2ccc(O)c(O)c2)c1; t
C=CCc1cc(OC)c(O[C@@H](C)[C@H](O)c2ccc(O)c(OC)c2)c(OC)c1; f
COc1ccc(CCC(=O)c2ccc(O)cc2)c(OC)c1; t
O=C(O)Cc1cccc(O)c1 [3-Hydroxyphenylacetic acid]; t
COc1cc(O)c2c(=O)c(O)c(-c3ccc(O)c(O)c3)oc2c1; t

* * *

# EXPERIMENTAL_TARGET: tau (Homo sapiens)
# EXPERIMENTAL_DETAILS: MCE Phenols Library screening, tau biosensor cell seeding assay (AvZ)
# Assay type: cell-based
# CONDITION_DETAILS: puncta, replicate 2
ASSAY_METRIC: raw data 2

COc1c(O)c(C)cc2c1C(=O)c1c(O)cccc1C2=O; 13501.7
O=c1c(-c2ccc(O)cc2)coc2cc(O[C@@H]3O[C@H](CO)[C@@H](O)[C@H](O)[C@H]3O)cc(O)c12; 14242.8
COc1ccc(-c2cc(=O)c3c(O)c(OC)c(O[C@@H]4O[C@H](CO[C@@H]5O[C@@H](C)[C@H](O)[C@@H](O)[C@H]5O)[C@@H](O)[C@H](O)[C@H]4O)cc3o2)cc1; 11228.4
O=C(O)Cc1cc(I)c(Oc2cc(I)c(O)c(I)c2)c(I)c1; 8231.59
COc1cc2oc(-c3ccccc3)cc(=O)c2c(O)c1OC; 14991.8
O=C(O)c1cc(O)c(O)c(O)c1; 137.18
O=C1O[C@@H]2[C@@H](O)[C@H](O)[C@@H](CO)O[C@H]2c2c1cc(O)c(O)c2O; 17481.2
O=C(O)[C@H]1O[C@@H](Oc2c(-c3ccc(O)c(O)c3)oc3cc(O)cc(O)c3c2=O)[C@H](O)[C@@H](O)[C@@H]1O; 20555.6
COc1cc2c(cc1O)CC[n+]1cc3c(OC)c(OC)ccc3cc1-2.[Cl-] [Jatrorrhizine (chloride)]; 12098.4
O=c1ccc2ccc(O)cc2o1; 7074.65
Oc1cc(O)cc(/C=C/c2ccc(O)c(O)c2)c1; 294.245
COc1cc(C(=O)O[C@H]2[C@@H]3C=CO[C@@H](O[C@@H]4O[C@H](CO)[C@@H](O)[C@H](O)[C@H]4O)[C@@H]3[C@@]3(CO)O[C@@H]23)ccc1O [Picroside II]; 3659.57
COc1cc(/C=C/C(=O)O[C@H]2C[C@@](O)(C(=O)O)C[C@H](O)[C@@H]2O)ccc1O (stereo in doubt); 8637.46
COC(=O)[C@]1(O)C[C@@H](O)[C@@H](O)[C@H](OC(=O)/C=C/c2ccc(O)c(O)c2)C1; 15696.4
COc1ccc(-c2coc3cc(O[C@@H]4O[C@H](CO)[C@@H](O)[C@H](O)[C@H]4O)c(OC)c(O)c3c2=O)cc1O; 15437.3
